# FGF21 activity (EC50, nM); p-ERK levels per entry
- TARGET_UNDER_TEST: T1, human beta-Klotho (human, UniProt Q86Z14 1-1044)
- T1 sequence (looked up): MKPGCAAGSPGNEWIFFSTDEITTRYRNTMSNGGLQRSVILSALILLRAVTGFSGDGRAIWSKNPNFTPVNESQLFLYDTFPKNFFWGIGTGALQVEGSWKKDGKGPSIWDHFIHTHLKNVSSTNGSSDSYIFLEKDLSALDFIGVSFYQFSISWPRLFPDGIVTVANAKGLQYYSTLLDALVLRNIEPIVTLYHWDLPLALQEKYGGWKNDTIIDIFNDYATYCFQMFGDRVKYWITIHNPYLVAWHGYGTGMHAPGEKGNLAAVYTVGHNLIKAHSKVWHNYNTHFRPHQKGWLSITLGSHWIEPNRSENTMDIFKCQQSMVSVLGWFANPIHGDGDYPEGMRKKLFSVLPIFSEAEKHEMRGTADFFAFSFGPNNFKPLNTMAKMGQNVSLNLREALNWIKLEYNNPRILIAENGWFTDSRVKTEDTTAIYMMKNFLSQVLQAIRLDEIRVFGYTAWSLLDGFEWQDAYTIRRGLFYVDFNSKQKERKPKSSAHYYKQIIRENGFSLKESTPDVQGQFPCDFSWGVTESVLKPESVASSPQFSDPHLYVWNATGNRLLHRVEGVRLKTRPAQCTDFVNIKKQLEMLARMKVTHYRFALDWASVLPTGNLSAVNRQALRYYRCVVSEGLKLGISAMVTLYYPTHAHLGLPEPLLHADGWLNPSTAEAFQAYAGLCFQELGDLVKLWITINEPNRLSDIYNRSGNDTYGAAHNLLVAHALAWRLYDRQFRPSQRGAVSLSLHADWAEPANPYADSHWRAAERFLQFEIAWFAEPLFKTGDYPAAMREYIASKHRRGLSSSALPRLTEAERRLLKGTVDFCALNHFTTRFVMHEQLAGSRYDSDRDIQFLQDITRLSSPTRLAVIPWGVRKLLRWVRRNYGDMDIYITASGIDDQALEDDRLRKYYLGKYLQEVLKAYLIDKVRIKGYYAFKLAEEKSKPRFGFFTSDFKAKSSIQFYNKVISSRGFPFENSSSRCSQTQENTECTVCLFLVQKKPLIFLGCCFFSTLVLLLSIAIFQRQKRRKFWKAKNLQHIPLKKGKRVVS
- EXPERIMENT: cell-based or functional assay
Numeric only. Scale: nM

Compound 69 (ligand, Moiety B (HOOC-(CH2)20-CO-gGlu-2XADO-EDA-CO-CH2) on 49C and 220C of fusion polypeptide) EGTFTSDVSSYLEEQAAKEFIAWLVKGGGGGGGSGGGGSGGGGSGGGGCHPIPDSSPLLQFGGQVRQRYLYTDDAQQTEAHLEIREDGTVGGAADQSPESLLQLKALKPGVIQILGVKTSRFLCQRPDGALYGSLHFDPEACSFRELLLEDGYNVYQSEAHGLPLHLPGQKSPHRDPAPRGPARFLPLPGLPPALPEPPGILAPQPPDVGSSDPLSLVGCSQGRSPSYES
0.53

Q: Look up FGF21 activity (EC50, nM); p-ERK levels for this binder: Compound 42 (ligand, Moiety A (HOOC-(CH2)16-CO-gGlu-2XADO) on 71K and 242K of fusion polypeptide) HGEGTFTSDVSSYLEEQAAREFIAWLVRGGGGAQPGAQPGAQPGAQPGAQPGAQPGAQPGAQPGAQPGAQKHPIPDSSPLLQFGGQVRQRYLYTDDAQQTEAHLEIREDGTVGGAADQSPESLLQLRALRPGVIQILGVRTSRFLCQRPDGALYGSLHFDPEACSFRELLLEDGYNVYQSEAHGLPLHLPGQRSPHRDPAPRGPARFLPLPGLPPALPEPPGILAPQPPDVGSSDPLSLVGKSQGRSPSYES
A: 8.4
